Hey, just so you know, these numbers are from ChEMBL document CHEMBL4118241.

Molecular target: Carboxypeptidase B (Sus scrofa)
Sequence (P09955 whole entry): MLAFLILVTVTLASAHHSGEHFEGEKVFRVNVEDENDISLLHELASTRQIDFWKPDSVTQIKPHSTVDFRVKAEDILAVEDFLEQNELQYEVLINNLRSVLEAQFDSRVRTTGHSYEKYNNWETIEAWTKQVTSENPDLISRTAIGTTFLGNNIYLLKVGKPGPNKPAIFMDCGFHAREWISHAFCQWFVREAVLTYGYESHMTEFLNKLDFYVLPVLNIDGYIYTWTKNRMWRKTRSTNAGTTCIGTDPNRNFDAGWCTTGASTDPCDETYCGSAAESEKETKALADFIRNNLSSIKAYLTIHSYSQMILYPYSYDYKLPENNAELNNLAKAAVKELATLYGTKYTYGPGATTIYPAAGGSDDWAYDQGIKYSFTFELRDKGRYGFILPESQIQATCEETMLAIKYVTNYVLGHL
Experiment: Inhibition of porcine pancreas carboxypeptidase B after 10 mins in absence of DTT
resultType: IC50 (nM)

[[record]]
compound = "CCC(=O)[Se]CC(Cc1cnc(N)c(Cl)c1)C(=O)O (racemic)"
measvalue = 2500


---

target: Carboxypeptidase B2 (Homo sapiens); test: Inhibition of human plasma activated thrombin-activatable fibrinolysis inhibitor after 10 mins in absence of DTT
Sequence (Q96IY4 whole entry): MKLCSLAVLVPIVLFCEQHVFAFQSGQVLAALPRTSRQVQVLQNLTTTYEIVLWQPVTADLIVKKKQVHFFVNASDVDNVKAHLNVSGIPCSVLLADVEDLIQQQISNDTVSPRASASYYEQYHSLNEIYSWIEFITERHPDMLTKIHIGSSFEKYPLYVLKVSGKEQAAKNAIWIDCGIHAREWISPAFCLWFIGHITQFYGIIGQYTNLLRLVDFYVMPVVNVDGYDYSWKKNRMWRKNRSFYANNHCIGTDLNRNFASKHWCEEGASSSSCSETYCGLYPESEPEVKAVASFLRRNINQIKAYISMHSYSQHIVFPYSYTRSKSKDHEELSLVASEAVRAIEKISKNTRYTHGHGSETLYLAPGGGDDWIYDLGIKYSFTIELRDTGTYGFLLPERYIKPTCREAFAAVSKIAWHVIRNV
resultType: IC50 (µM)

[[record]]
compound = "CCC(=O)[Se]CC(Cc1cnc(N)c(Cl)c1)C(=O)O (racemic)"
unit = "µM"
measvalue = 370

